Property: OD450/OD450 Control antibody 1; scope: individual binders
Biological target: T1, soluble human IL-4Rα (sIL-4Rα; PEPRO TECH, Catalog Number: 200-04R) (human, UniProt P24394 26-232)
T1 construct: Bought protein; also called shIL-4Rα; soluble hIL-4 Rα
T1 sequence: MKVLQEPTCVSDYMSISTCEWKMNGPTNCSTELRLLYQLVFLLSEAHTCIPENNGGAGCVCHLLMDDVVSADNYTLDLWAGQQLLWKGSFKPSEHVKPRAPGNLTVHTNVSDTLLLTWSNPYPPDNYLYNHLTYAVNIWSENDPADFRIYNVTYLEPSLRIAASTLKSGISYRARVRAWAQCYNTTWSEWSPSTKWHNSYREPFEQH
Assay: ELISA, coated sIL-4Rα, culture supernatant
Measured metric: OD450/OD450 Control antibody 1

Binder	Measured metric	Observed
L1020H1007 (antibody, V domains shown) VH: EVQLVQSGGGLVHPGGSLRLSCAGSGFTFSRNAMFWVRQAPGKGLEWVSGIGTGGATSYADSVKGRFTISRDNAKNSLYLQMNSLRAEDMAVYYCARGRYYFDYWGQGTLVTVSS VL: EIVLTQSPGTLSLSPGERATLSCRASQSVSSSYLAWYQQKPGQAPRLLIYGASSRATGIPDRFSGSGSGTDFTLTISRLEPEDFAVYYCQQYDHSAGWTFGQGTKVEIK	OD450/OD450 Control antibody 1	0.4 ratio to control antibody 1
L1020H1029 (antibody, V domains shown) VH: EVQLVESGGGLVQPGGSLRLSCAASGFTFSRNAMFWVRQAPGKGLEWVSGIGTGGATSYADSVKGRFTISRDNAKNSLYLQMNSLRAEDMAVYYCARGRYYFPWWGQGTLVTVSS VL: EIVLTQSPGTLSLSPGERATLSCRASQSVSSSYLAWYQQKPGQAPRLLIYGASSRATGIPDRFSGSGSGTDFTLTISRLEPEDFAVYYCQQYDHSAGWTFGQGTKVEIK	OD450/OD450 Control antibody 1	1.01 ratio to control antibody 1
L1016H1000 (antibody, V domains shown) VH: EVQLVQSGGGLVHPGGSLRLSCAGSGFTFSRNAMFWVRQAPGKGLEWVSGIGTGGATNYADSVKGRFTISRDNAKNSLYLQMNSLRAEDMAVYYCARGRYYFDYWGQGTLVTVSS VL: EIVLTQSPGTLSLSPGERATLSCRASQSVSSSYLAWYQQKPGQAPRLLIFGASSRATGIPDRFSGSGSGTDFTLTISRLEPEDFAVYYCQQYDHSPPWTFGQGTKVEIK	OD450/OD450 Control antibody 1	0.27 ratio to control antibody 1
